B1: CDC25B (parent)
chain: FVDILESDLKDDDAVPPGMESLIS

# Variants of: B1
# protocol_summary: protein stability index of a GFP-peptide fusion (GPS, HEK-293T) (PSI 1-6); higher = more stable;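 note: lentivirally expressed fusions sorted by FACS into six bins by GFP to DsRed ratio, PSI derived from sequencing read proportions per bin multiplied by bin number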
# condition_notes: c terminus: a fixed tail appended
Record Y whenever protein stability index is at 3 or higher; record N when lower.

The following variants have reported results that may help.
D12H: N
P16M: N
A14C: N
D12K: N
D8N: Y

Query variant follows.
Hello, I need to know if E20Y has measured protein stability index not below 3. Thanks!
N
